Value source: paper PMC3123436

Measured MIC of individual entries
# Tested on: M. tuberculosis isolate UCSD14768J
# assay explanation: microbe, parasite or virus in culture
# assay setup: Mycobacterium tuberculosis, read-out: MIC95 (95% inhibition)

# compound, measure unit, MIC
measured = [
    ("CN(CCCNC(=O)c1ccc2c(c1)N(Cc1cccc(Cl)c1)C(=O)c1ccccc1[S+]2[O-])C1CCCCC1 (stereo not shown)", "µM", 110),
    ("O=C(NCCCN1CCCC1)c1ccc2c(c1)N(Cc1cccc(Cl)c1)C(=O)c1ccccc1S2", "µM", 110),
    ("O=C(NCCCN1CCCC1)c1ccc2c(c1)N(Cc1cccc(Cl)c1)C(=O)c1ccccc1[S+]2[O-] (stereo not shown)", "µM", 220),
    ("O=C(NCCN1CCCCCC1)c1ccc2c(c1)N(Cc1cccc(Cl)c1)C(=O)c1ccccc1[S+]2[O-] (stereo not shown)", "µM", 110),
]
